This section presents sequences with their documented apparent KD of MS2 coat protein values.
- Test system: MS2 coat protein
- Measurement Protocol: apparent KD of MS2 coat protein; designed switch direction (-1 OFF switch, 1 ON switch): -1; higher = weaker reporter binding
- Condition: input ligand: FMN 200 uM
Give your result in nM as a bare value.

Biopolymer Sequence | Assayed System | apparent KD of MS2 coat protein [nM]
CCGACCUGAGGAUAUAGCGUCCGCGACAUGAGGAUCACCCAUGUCCCUCAUAACGUAAAACUAGAAGGUAGAGUCG [Eternabot (L1) Solution 75] (Eterna round: R97, puzzle: Exclusion 5) | MS2 coat protein | 29.8
CCAUGGGAGCGAGGAUAUAGCCCAUGGGAAGAGCUAGAAGGCGCUGACAUGAGGAUCACCCAUGUGUUCAUGAGGAGGUGGACA (Eterna round: R96, puzzle: Exclusion NG 1) | MS2 coat protein | 292

Challenge: Fill in the blank: the reported apparent KD of MS2 coat protein of CUGAUGUUAGGAUAUCAGGUCACGCGCGAAGGCGCGCGGCAUGAGAAGGAACAUGAGGAUCACCCAUGUGACGA [Reisquso] (Eterna round: R96, puzzle: Exclusion 4) is ____.
Response given: 305
